target: serotonin 5-HT2C receptor (VSV type isoform) stably expressed in CHO cell (Homo sapiens, UniProt P28335, I156V/I160V/N158S); assay: cell-based; format: cell-based; settings: 1 μM
Sequence (P28335 33-458 I156V/N158S/I160V limits assumed): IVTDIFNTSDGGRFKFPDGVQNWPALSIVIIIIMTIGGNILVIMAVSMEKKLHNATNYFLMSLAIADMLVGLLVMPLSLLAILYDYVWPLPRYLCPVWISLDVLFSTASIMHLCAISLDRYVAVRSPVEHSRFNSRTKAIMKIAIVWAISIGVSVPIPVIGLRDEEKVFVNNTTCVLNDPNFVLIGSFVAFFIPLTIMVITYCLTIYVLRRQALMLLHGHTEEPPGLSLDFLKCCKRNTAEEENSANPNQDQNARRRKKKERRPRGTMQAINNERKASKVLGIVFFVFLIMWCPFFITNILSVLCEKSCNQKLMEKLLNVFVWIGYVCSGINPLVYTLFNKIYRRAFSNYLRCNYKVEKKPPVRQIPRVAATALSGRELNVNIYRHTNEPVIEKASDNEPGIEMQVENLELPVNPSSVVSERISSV
measurement-label: ratio relative to maximum response by 5-HT (1 μM)
The answer should be written as a number, with no unit following it.

The cases that follow already have their ratio relative to maximum response by 5-HT (1 μM) on record.
Noted for `CC(C)Oc1ccc2c(n1)OCCNC2.CC(C)Oc1ccc2c(n1)OCCNC2.O=C(O)CCC(=O)O` : its ratio relative to maximum response by 5-HT (1 μM) reads 97.7

Field ratio relative to maximum response by 5-HT (1 μM) (entry CC(Oc1ccc2c(n1)OCCNC2)C1CC1.CC(Oc1ccc2c(n1)OCCNC2)C1CC1.O=C(O)CCC(=O)O (single isomer, unassigned; (-)) [Example 35] ) reads 93.7

The recorded ratio relative to maximum response by 5-HT (1 μM) for entry CC(Oc1ccc2c(n1)OCCNC2)C1CC1.CC(Oc1ccc2c(n1)OCCNC2)C1CC1.O=C(O)CCC(=O)O (stereo not shown) [Example 16] equals 98.8

Here's the next entry for you.
Entry under test: CC(Oc1ccc2c(n1)OCCNC2)C1CC1.CC(Oc1ccc2c(n1)OCCNC2)C1CC1.O=C(O)CCC(=O)O (single isomer, unassigned; (+)) [Example 36] . Its ratio relative to maximum response by 5-HT (1 μM) was 104.7

====

target: serotonin 5-HT2C receptor (VSV type isoform) stably expressed in CHO cell (Homo sapiens, UniProt P28335, I156V/I160V/N158S); assay: cell-based; format: cell-based; settings: CHO; read-out: ratio relative to maximum response by 5-HT (1 μM)
Structures can show the parent of a compound that is named as a salt.
measurement-label: Emax (%)
Write the answer as a number in %, unit excluded.

Some solved cases for reference:
The compound FC1(F)CCC(Oc2ccc3c(n2)OCCNC3)CC1 [Example 23, hydrochloride] showed Emax equal to 83.8

Recorded Emax (compound CC(C)Sc1ccc2c(n1)OCCNC2 [Example 37, hydrochloride] ): 94.5

The reported Emax of the compound CCOc1ccc2c(n1)OCCNC2 [Example 13, hydrochloride] was 97.4

Value of Emax reported for the compound CC(C)[C@@H](C)Oc1ccc2c(n1)OCCNC2 [Example 25, hydrochloride] is 98.6

Emax reading for CC[C@@H](C)Oc1ccc2c(n1)OCCNC2 [Example 27, hydrochloride] : 99.8

Value of Emax reported for the compound `CC(C)(C)Oc1ccc2c(n1)OCCNC2` is 98.6

Value of measured Emax for the entry CC(C)COc1ccc2c(n1)OCCNC2 [Example 3, hydrochloride] : 101

Emax in this record for CC(C)[C@H](C)Oc1ccc2c(n1)OCCNC2 [Example 24, hydrochloride] : 94.7

Recorded result, CC[C@H](C)Oc1ccc2c(n1)OCCNC2 [Example 26, hydrochloride] , Emax: 97.6

Let us move to another entry and its Emax.
Data point: c1ccc(Oc2ccc3c(n2)OCCNC3)cc1 [Example 28, hydrochloride] ; Emax = 91.2
